experiment: yeast display, Sf9 membrane polyspecificity reagent, FACS + sequencing; frameworks hold sequencing errors
property.name: polyreactivity (PSR sort gate)

biosequence | reported
QVQLVESGGGLVQAGGSLRLSCAASGITFGVNAMGGSRQAPGKERELVAAITQRGDSTYYADSVKGRFTISRDTAKNTLDLQMNSLKPEDTAVYYCNADYAWRFPVTYDYWGQGTQVTVSS | low polyreactivity
QVHLVESGGGLVQSRGSLRLSCAASGNIFGNNAMGWYRLAPGKERELVAAISSSGTSTYYADSVKGRFTISRDNAKNTVYLQMNSLKPEDTEVYYCNADPLPYDGYYDYDYWGQGTQVTVSS | low polyreactivity
QVQLVESGGGLVQAGGSLRLSCAASGNTFYVYAMGWYRQAPGKERELVADITWSGGSTYYADSVKGRFTISRDNAKNTVYLQMNSLKPEDTAVYYCNADYYYQLWELEYYYWGQGTQVTVSS | high polyreactivity
QVQLVESGGGLVQAGGSLRLICDASGLTFGIYTMGWYRQAPAKESELVAAINWIGTRTYYADSVKGRFTISRDNAKNTVYLQMNSLKPEDTAVYYCATVIGYTKRKYDYWGQGTQVTVSS | high polyreactivity
QVQLVESGGGLVQAGGSLRLSCAASGDIFDAYAMGWYRQAPGKERELVAAISRSGGSTYYADSVKGRFTISRDNAKNTVYLQMNSLKPEDTAVYYCATRFSRRYVRYDYWGQGTQVTVSS | high polyreactivity
QVHLVESGGGLVQAGGSLRLSCDASGLTLWTYAMGWSRQAAGKEMELVARIRSGGSTYYADSVKGRFTFSRDNAKNTVYLQMNSLKPEDTAVYSCNAKRYGRWAAAGRVGYDYWGQGTQVTVSS | high polyreactivity
QVQIVESGGGLVQAGGSLRLICAASGRIFYRYAMGWYRQAPGKERELVAAISSGSSTNYADSVKGRFTISRDNAKNTVYLQMNSLKPEDTAVYYCNAERYGKSWRYCYWGQGTQVTVSS | high polyreactivity
QVQHVESGGGLVQAGGSLRLTCAASGRIIAGYAMGWYRQATGKEREMVAAISSRGGSTYYADSVKGRFSISRDNAKNTVDLQMNSLKPVDTAVYYCAKRSWYSYVYGSGDYWGQGTQVTVSS | high polyreactivity
QVQLVDSGGCLVQAGGSLRLSCAASGRTDGINAMGWYRQAPGKERELVAAIDSIDGTTYYADSVKGRFTISRDNAKNTVYLQMNSLKQEDTAVYYCAAEFISSYDYWGQGTQVTVSS | high polyreactivity
QVQLVESGGGLVQAGGSLRLSCAASGRIFRYYAMGWYRQAPGKERELVATISRSGGSTFYADSVKGRFTISRDNAKNTVYLQMNSLKPEDTAVYYCNARYQTGGYGYWGQGTQVTVSS | high polyreactivity
QVQLVESGGGLVQAGGSLRLSCAASGFTFFIYVMGWYRQAPGKEREFVAAISSSGDSTYYADSVKGRFTISRDNAKNTVYLQMNSLKPEDTAVYYCAADRIRDLEFDYWGQGTQVTVSS | low polyreactivity

* * *

experiment: yeast display, Sf9 membrane polyspecificity reagent, FACS + sequencing; frameworks hold sequencing errors
property.name: polyreactivity (PSR sort gate)

biosequence | reported
QVQLVESGGGLVQAGGRLRLSCAASGRTFGINAMGWYRQEPGKERELVASISSGGRTNYADSVKGRFTISRHNAKNTVYLQMNSLKPEDTAVYYCARSRLGRAYGRYDYWGQGTQVTVSS | low polyreactivity
QVQLVESGGGIVQAGGSLRLSCAASGSTFFDNAMGWYRQAPGKERDLVAAISLTDGITYDADSVKGRFTISRDNAKNTVYLQMNSLKPEDTAVYYCNAVYDWSLDQVWDYFEYEYWGQGSQVTVSS | high polyreactivity
QVQLVESGGGLVQAGGSLRLSCAASGFIFRYYAMGWSRQAPGKERELVAAISTGGSTHYADSVKGRFTISRDNAKNTVYLQMNSLKPEDTAVYYCAAPRYFRVRYGYWGQGTQVTVSS | high polyreactivity
QLQLVESGGGLVQAGGSLRLSCAHSGRTFYVNAIGWSRQAPRKERELVATITDRGGRSYYADSVKGRFTISRDNAKNSVYLQMTSLKPEDTAVYYCAATRWYEVDYWGQGTQVTVSS | low polyreactivity
QVQLVESGGGLVQAGGSLRLSCAASGSIFNSNGMGWYRQAPGKERELVAAITGGGSTNYADSVKGRFTISRDYAKNTVYLQMNSLKPEDTAVYYCAKRSYRTHTYDYWGQGTQVTVSS | low polyreactivity
QVQLVESGGGLVQAGGSLRLSCAASGITLQNNAMGWYRQAPGKERELVAAITGSGGSTYYADSVKGRFTISRDNAKNTVYLQMNSLKPEDTAVYYCATDGIFHLGVYTPYDYWGQGTQVTVSS | low polyreactivity
QVQLVESGGGLVQAGGSLRLSCAASGIIFTVYAMGWYRQAPGKERELVASITSNGGSTYYADSVKGRFTISRDNAKNTVYLQMNSLKPEDTAVYYCAADSYYDPVDYNYWGQGTQVTVSS | low polyreactivity
QVQLVESGGGLVQAGGSLRLSCAASGRIFYFNAMGWYRPAPGKDRELVADISSGGRTNYADSVKGRFTISRDNAKNTVYLQMNSLKPEDTAVYYCNAEAYTSSGGYRGYDFDYWGQGTQVTVSS | low polyreactivity
QVQHVESGGGLVQAGGSLRLSSAASGHTFHRYAMGWYRQARWKESELVAAISDSGSSSYYADSVKRRFTISRDYAKYTVYLQMNSLKPEDTALYYCAAVSGFFDQYDYWGQGTQVTVSS | low polyreactivity
QVQLVESGGGLVQAGGSLRLSCAASGFISPPYAMGWYRQAPGKERELVAAIRSSGGSTYYADSVKGRFTISRDNAKNTVYLQMNSLKPEDTAVYYCNADWIYISSYGWYSYDYWGQGTQVTLSS | high polyreactivity
QVHLVESGGGLVQAGGSLRLSCAASGRTCRINAMGWYRQAPGKERELVAAITSGGRTNYADSVKGRFTISRDNAKNTVYLQMNSLKPEDTAVYYCAADTTHWYYLGYGYWGQGNQVTVSS | low polyreactivity
